Known remaining activity at 1 µM of a selection of compounds
# Measured on: HsHaspin (Homo sapiens)
# Sequence (Q8TF76 1-798): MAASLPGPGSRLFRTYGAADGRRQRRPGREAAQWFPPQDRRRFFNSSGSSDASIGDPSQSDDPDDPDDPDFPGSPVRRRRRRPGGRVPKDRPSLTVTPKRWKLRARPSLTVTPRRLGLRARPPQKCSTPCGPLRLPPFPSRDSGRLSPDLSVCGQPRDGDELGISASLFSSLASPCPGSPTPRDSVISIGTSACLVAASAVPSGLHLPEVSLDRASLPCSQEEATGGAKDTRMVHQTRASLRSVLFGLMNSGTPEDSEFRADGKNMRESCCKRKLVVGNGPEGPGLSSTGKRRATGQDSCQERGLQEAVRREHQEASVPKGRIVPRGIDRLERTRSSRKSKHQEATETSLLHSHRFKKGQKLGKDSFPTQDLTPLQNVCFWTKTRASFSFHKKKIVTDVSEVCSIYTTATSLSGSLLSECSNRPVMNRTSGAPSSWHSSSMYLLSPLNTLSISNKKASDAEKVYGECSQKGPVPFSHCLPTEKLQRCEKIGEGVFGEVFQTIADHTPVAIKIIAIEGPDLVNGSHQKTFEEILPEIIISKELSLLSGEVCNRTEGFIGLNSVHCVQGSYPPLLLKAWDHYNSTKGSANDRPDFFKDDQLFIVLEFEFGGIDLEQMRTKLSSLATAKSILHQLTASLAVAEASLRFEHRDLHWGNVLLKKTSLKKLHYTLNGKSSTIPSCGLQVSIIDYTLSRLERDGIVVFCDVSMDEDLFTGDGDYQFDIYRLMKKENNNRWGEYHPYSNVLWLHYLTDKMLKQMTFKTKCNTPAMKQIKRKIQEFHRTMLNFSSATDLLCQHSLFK
# Test method notes: ADP-Glo kinase assay
# Assay type: biochemical, Homo sapiens (Hs)
# Particulars: 1 μM; mean n = 2; % of maximum activity of DMSO control; read-out: % Residual activity at 1 μM Haspin
Reply with just the number (in %).

Name the recorded remaining activity at 1 µM for `O=c1[nH]c2ccc(O)cc2c2c1[nH]c1ccccc12` . 1

Now give it for `COc1ccc2[nH]c3c(=O)[nH]c4ccc(N)cc4c3c2c1` too. 2

Check `COc1ccc2[nH]c(=O)c3[nH]c4ccccc4c3c2c1` too. 6

Check `COc1ccc2c(c1)c1c3cc(C(F)(F)F)ccc3[nH]c(=O)c1n2C` too. 51

For `O=c1[nH]c2ccc(O)cc2c2c1[nH]c1ccc(F)cc12` then? 0

The origin of these recorded values is paper PMC9186362.
